Tested on: TO-N3 (biotin conjugate)
Assay: pull-down binding Z-score (relative to library population); higher = stronger binding
Conditions: RNA library: Library-2
MEASURED ATTRIBUTE: pull-down binding Z-score

- UUAGCCCAGCAAUGGGAGAGUGCUAA [hsa-mir-4636]: 0.111
- UCCUGUUUACCUUUUACAAUUAAUUGCCAGGA [SHAPE_invivo_SARS-CoV-2_Motif_533]: -1.01
- CCUCUGACUAAGGGG [IAV_invivo_M1_M2_7_Motif_4+IAV_invivo_M1_M2_7_Motif_4]: -0.504
- UUUUGAAAGUAACUUGGCGAAA [hsa-mir-548ad]: -0.0602
- AGUUAGAAUUCUUAAGUAUCAAAACUAAAU [hsa-mir-4760]: 0.106
- UGAAGCCCCGAGAUGCCUCACGUCUUCA [hsa-mir-6802]: 0.243
- CUUUUAUGUGCCUUGAUAUAAAAG [hsa-mir-3910-2]: -0.644
- CAGUAAGCCUUGACUUAUGGCUAAAUGCUUC [hsa-mir-4273]: 0.0209
- UGUGACCUGGAGCAGCUCAGGAGGGCUUCCUGGGUGAGGUGGCAGGUUACA [hsa-mir-4311]: 1.08
- GACAAUAUGUAUAAUGUUCAUAAGUCAUUC [hsa-mir-384]: 0.444

###

Listed here are sequences together with their documented pull-down binding Z-score.
System: G-clamp-N3 (biotin conjugate)
Assay: pull-down binding Z-score (relative to library population); higher = stronger binding
Details: RNA library: Library-1 (pre-miRNA loops + repeats)
MEASURED ATTRIBUTE: pull-down binding Z-score

- UCACAGGGCUCAGGGAAUGUGUCUGCACCUGUGA [hsa-mir-587]: 0.296
- AUGCCUGAGAAUAUAUGAAGGAGGCU [hsa-mir-204]: 2.31
- GAUGAAGAUUAAUCCCUAAUCCCCAACA [hsa-mir-6757]: -1.77
- CUUACUGCCCGGGCCGCCCUCAGUAA [hsa-mir-212]: -1.81
- GUGUCCUUUCUUCUGAGAGCUGGACAC [hsa-mir-6500]: 0.00177
- AACAGCUUUGCGAAGUGUUGUU [hsa-mir-4425]: -0.651
- GUCUGUCACUGGGGAAGUC [hsa-mir-4682]: 1.71
- UGGAGGAGUCUGGUGGCCUGUUCUCUU [hsa-mir-6754]: -0.0952
- UCUGUUUUAAGUAACAGA [hsa-mir-7705]: 0.244
- GGGUUGCAUCCUAAGCUGUGCUGGAGCUUCCC [hsa-mir-623]: -0.84
- UUUACAUAUAAAUUUCUAUUUGU [hsa-mir-4503]: -1.51

###

Listed here are sequences together with their documented pull-down binding Z-score.
System: TO-3-N3 (biotin conjugate)
Assay: pull-down binding Z-score (relative to library population); higher = stronger binding
Conditions: RNA library: Library-2
MEASURED ATTRIBUTE: pull-down binding Z-score

* GUUGAUGAGCCUGAAGAACAUGUCCAAAUUCACACAAUCGACGGUUCAUCCGGAGUUGUUAAUCCAGUAAUGGAACCAAUUUAUGAUGAACCGACGACGAC | 0.104
* CACGUCCAACUCAGUUUGCCUGUUUUACAGGUUCGCGACGUG | 0.0988
* CAGUCCUGAGAUGCAGGGACUG [hsa-mir-4799] | -0.626
* CUAAGUCACUAACUGAGAAUAAAUAUUCUCAAUUAGAUGAAGAG | -1.02
* GUGAGUGUCUCUUGUCGC [hsa-mir-1281] | 0.334

###

Listed here are sequences together with their documented pull-down binding Z-score.
Test system: TO-3-N3-2 (biotin conjugate)
Test: pull-down binding Z-score (relative to library population); higher = stronger binding
Settings: RNA library: Library-2
MEASURED ATTRIBUTE: pull-down binding Z-score

• UGGGUAGAAAGUAUUAUUCUAUUCA [hsa-mir-664b] = -0.0975
• CAUUUGUGGCAUGGACCAUUUGUG [hsa-mir-4504] = -0.518
• UGGAGGCUGCAGUGAGCCGAGAUCGAGCCACUGUACUCCA [hsa-mir-1273e] = -0.0556
• AGUGUUUGCCUAGGUUCUUUAAUCUACUCAACCGCU = -0.219
• UAACAGUUACACCGGAAGCCAAUAUGGAUCAAGAAUCCUUUGGUGGUGCAUCGUGUUG = -0.365
• GACCGUUGGCAUCUUAAUUACCCUC [hsa-mir-532] = -0.339
• GGUUCUCAGUCAGAACC [hsa-mir-6813] = -0.346
• AGCUGUUGGCCAUGGCGACAACACCU [hsa-mir-6742] = -0.322
• AAAUUUUUGGCUUUGUGUGCUGACUCUAUCAUUAUUGGUGGAGCUAAACUUAAAGCCUUGAAUUU [SHAPE_invivo_SARS-CoV-2_Motif_45] = -0.123
• GGUUUAUACCUUCCCAGGUAACAAACC = -0.582
• CACUGCAGUUACCCUCCCCUCGGCGUUACUGAGCACUG [hsa-mir-637] = 0.224
• GAGGUUGCAGUGAGCCAAGAUCGUG [hsa-mir-4459] = 0.278
• GAGUGAGGCCCAGUGGUCACCGCCGCCCUC [hsa-mir-4754] = 0.3
• AAAUAAAAGAUGGAGUCGUUUGACGUCUUUUAACACCCUUU [hsa-mir-8055] = -0.1
• GUGGUGAGACACUUGGUGUCCUUGUCCCUCAUGUGGGCGAAAUACCAGUGGCUUACCGC = -0.0757
• GAUGCUGUAUAUCUGAAAGGUAC [hsa-mir-101-2] = -0.144
• AUCCGAUUUACAGGAU = -0.525
• UAGAGGGUAAAAUUAAUAACCUUCUA [hsa-mir-628] = 0.114
• CUGGGAGGUGUGAUCCUGUGCUUCCUGG [hsa-mir-3689a] = 0.507
• UAGUGAUGAAGUUGCGAGAGACUUGUCACUA = -0.441
• GCAGCCUUGC [hsa-mir-4298] = -0.244
• UAAAAUGAAUUAUCAAGUUA [DMSMaPseq_invitro_SARS-CoV-2_Motif_325] = -0.451

###

Test system: TO-3-N3 (biotin conjugate)
Experiment: pull-down binding Z-score (relative to library population); higher = stronger binding
Conditions: RNA library: Library-2
Decide by pull-down binding Z-score: equal to or exceeding -0.5 means rule met, less means rule not met.

* GUACAUGGGCACACUUUCUUAUGAACAAUUUAAGAAAGGUGUUCAGAUACCUUGUAC [SHAPE_invitro_SARS-CoV-2_Motif_110] | rule not met
* AGUACACCUUUGAAAAAGGUGACU | rule not met
* GUGGCUUGUGGCUGAGUGUCACGCUGC [hsa-mir-6068] | rule not met
* GCCGGGGCCUGGCGCUCCUCUACCUUGUCAGGUGACCCAGC [hsa-mir-4274] | rule met
* CUUGCUGUGACAUGACAAAAAUAAG [hsa-mir-302d] | rule met
* GUUCUUUGAGAAC [IAV_invivo_PA_3_Motif_25+IAV_invivo_PA_3_Motif_25] | rule met
* CUGGGUUCUUAGAGGCCUAAUCCUCUACAAACUCAGUUU [hsa-mir-4305] | rule met
* GAAAAAUCCCUGUUAACUUUC [hsa-mir-6833] | rule met
* GGAGUCCUCUAGACACC [hsa-mir-6510] | rule met

###

System: TO-N3 (biotin conjugate)
Test: pull-down binding Z-score (relative to library population); higher = stronger binding
Settings: RNA library: Library-2
MEASURED ATTRIBUTE: pull-down binding Z-score

* AGGCAUUAGGAUCCUUAUUCUUGCCU [hsa-mir-4788] | -0.559
* CGCUGCCUGGAAUUAACCCCGCUGUG [hsa-mir-636] | 0.517
* UGGUAAUGCUGCUAUCAGCGAUUAUGACUACUAUCGUUAUAAUCUACCA | -1.09
* UCUAUUAAAAUAUAAUGA [DMSMaPseq_invitro_SARS-CoV-2_Motif_395] | -0.185
* GUUUUUUAAGAGGAAGGGAGACCUAAGCUAGCA [hsa-mir-4481] | 0.507

###

Test system: G-clamp-N3 (biotin conjugate)
Assay: pull-down binding Z-score (relative to library population); higher = stronger binding
Settings: RNA library: Library-1 (pre-miRNA loops + repeats)
Decide by pull-down binding Z-score: equal to or exceeding -0.3 means T, less means F.

- CUGGGGAGCCGGACAGCUCCCUUCCCAG [hsa-mir-3155a]: T
- AACGUUAUGUGUGGUCUUUAACCUGUU [hsa-mir-6755]: F
- GCAUGCCC [hsa-mir-1178]: F
- ACGUGACCUCCUGGGCCUG [hsa-mir-6770-1_6770-3_6770-2]: F
- UUUGCUACUGAAAGUAAUGGCAAA [hsa-mir-548z]: T
- CCGCCUUUGUGCUGUCCUUGGAGGGAGG [hsa-mir-1910]: T
